These data points were gathered from patent US8193203B2.

Items are presented alongside their recorded IC50.
# tested.system: human CXCR4 receptor (Homo sapiens, UniProt P61073)
# Construct: expressed in transfected cells
# Sequence (P61073 whole entry): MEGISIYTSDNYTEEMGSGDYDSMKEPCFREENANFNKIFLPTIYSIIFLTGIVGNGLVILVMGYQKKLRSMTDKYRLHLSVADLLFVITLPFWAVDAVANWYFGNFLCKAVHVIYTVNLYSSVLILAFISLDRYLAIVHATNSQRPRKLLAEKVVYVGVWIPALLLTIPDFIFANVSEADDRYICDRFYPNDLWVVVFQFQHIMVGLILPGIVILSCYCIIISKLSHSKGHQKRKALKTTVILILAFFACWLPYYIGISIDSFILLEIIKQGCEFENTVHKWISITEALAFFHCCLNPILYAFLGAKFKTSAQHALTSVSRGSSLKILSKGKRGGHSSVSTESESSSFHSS
# assay.name: Measurement of intracellular Ca+2 responses (FLIPR), antagonism of the SDF-1α response
# Type: cell-based
# experimental.conditions: HEK-Gqi5 cells stably expressing human CXCR4; Fluo-4 FLIPR; antagonism of SDF-1α 1.9 nM (EC65); values in nM
quantity.kind: IC50 (nM)

>>> print(df.to_string())
                                    compound  quantitative_readout
 0  CCN1CCC(CNc2nc(NC3CCN(Cc4c(OC)cccc4N(C)C)CC3)c3ccccc3n2)C1 (stereo not drawn) [Compound 107]                   653
 1  COc1cc2nc(NCCN(C)C)nc(NC3CCN(Cc4c(OCCN5CCCC5)cccc4N(C)C)CC3)c2cc1OC [Compound 193]                    65
 2  COc1cc2nc(NCCO)nc(NC3CCN(Cc4c(OCCN(C)C)cccc4N(C)C)CC3)c2cc1OC [Compound 208]                   169
 3  COc1cccc(N(C)C)c1CN1CCCC(Nc2nc(NCCCN(C)C)nc3ccccc23)CC1 (stereo not drawn) [Compound 174]                   770
 4  COc1cc2nc(NC[C@H](O)CO)nc(NC3CCN(Cc4c(OCCN(C)C)cccc4N(C)C)CC3)c2cc1OC [Compound 195]                    31
 5  COc1cc2nc(NCc3cncn3C)nc(NC3CCN(Cc4c(OCCN(C)C)cccc4N(C)C)CC3)c2cc1OC [Compound 198]                    36
 6  COc1cc2nc(NCCCN(C)C)nc(NC3CCN(Cc4c(OC)cccc4N(C)CCN(C)C)CC3)c2cc1OC [Compound 157]                   411
 7  COc1cccc(N(C)C)c1CN1CCC(Nc2nc(NCCN3CCN(C)CC3)nc3ccccc23)CC1 [Compound 154]                   560
 8  CCN(CC)CCCNc1nc(NC2CCN(Cc3c(OC)cccc3N(C)C)CC2)c2cc(OC)c(OC)cc2n1 [Compound 42]                   179
 9  COc1cc2nc(NCc3c[nH]cn3)nc(NC3CCN(Cc4c(OCCN(C)C)cccc4N(C)C)CC3)c2cc1OC [Compound 206]                    16
10  CCN(CC)CCNc1nc(NC2CCN(Cc3c(OC)cccc3N(C)C)CC2)c2cc(OC)c(OC)cc2n1 [Compound 41]                   360
11  COc1cccc(N(C)C)c1CN1CCC(Nc2nc(NCCN3CC(C)OC(C)C3)nc3ccccc23)CC1 (stereo not drawn) [Compound 95]                   605
12  COc1cccc(N(C)C)c1CN1CCC(Nc2nc(NCCCN(C)C)nc3ccccc23)CC1 [Compound 68]                    41
13  COc1cc2nc(NCCCO)nc(NC3CCN(Cc4c(OCCN(C)C)cccc4N(C)C)CC3)c2cc1OC [Compound 207]                    69
14  COc1cccc(N(C)C)c1CN1CCC(Nc2nc(NCC[C@@H]3CCCN3)nc3ccccc23)CC1 [Compound 115]                   234
